- measurementTarget: 5-hydroxytryptamine receptor 3A/3B (Mus musculus, UniProt P23979+Q9JHJ5)
- Sequence (P23979 whole entry): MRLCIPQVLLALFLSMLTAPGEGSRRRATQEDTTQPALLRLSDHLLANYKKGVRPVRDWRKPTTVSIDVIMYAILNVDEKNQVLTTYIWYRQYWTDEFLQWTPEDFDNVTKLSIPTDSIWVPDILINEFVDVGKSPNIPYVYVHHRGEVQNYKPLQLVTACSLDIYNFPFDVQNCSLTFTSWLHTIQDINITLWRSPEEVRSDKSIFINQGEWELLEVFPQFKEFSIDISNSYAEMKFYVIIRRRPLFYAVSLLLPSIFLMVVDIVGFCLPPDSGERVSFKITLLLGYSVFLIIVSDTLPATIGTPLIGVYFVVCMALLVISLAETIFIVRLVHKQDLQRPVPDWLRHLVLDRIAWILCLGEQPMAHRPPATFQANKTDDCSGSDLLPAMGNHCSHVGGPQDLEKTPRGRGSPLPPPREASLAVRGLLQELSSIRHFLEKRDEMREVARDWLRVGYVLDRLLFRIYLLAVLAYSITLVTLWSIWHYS
- Sequence (Q9JHJ5 whole entry): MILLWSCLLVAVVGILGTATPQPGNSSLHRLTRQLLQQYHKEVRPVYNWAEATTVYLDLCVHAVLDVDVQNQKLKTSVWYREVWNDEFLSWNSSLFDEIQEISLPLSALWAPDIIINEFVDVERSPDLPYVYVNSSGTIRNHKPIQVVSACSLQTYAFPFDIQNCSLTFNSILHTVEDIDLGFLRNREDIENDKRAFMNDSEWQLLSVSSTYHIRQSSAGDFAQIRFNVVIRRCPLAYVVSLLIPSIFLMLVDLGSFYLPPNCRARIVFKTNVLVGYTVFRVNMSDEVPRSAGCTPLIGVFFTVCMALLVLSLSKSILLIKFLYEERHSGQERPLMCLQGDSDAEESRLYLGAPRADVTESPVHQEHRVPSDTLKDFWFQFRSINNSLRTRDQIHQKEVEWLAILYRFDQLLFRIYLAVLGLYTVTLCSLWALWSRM
- assayProtocol: Binding affinity towards 5-hydroxytryptamine 3 receptor was determined by using [3H]-ICS 205-930 as radioligand in mouse N1E 115 cells
Please use 1.0 for Kd under 0.8 nM and 0.0 for everything else, ties included.

> print(dat)
                                   molecule  classassignment
1  CN1[C@@H]2CC[C@H]1C[C@@H](OC(=O)c1cc(Cl)cc(Cl)c1)C2 [TROPANYL 3,5-DICHLOROBENZOATE]              0.0
2  O=C(OC1CC2CCC(C1)N2)c1c[nH]c2ccccc12 (stereo unspecified)              1.0
3          CCN(CC)CCNC(=O)c1cc(Cl)c(N)cc1OC              0.0
4                  c1ccc2nc(N3CCNCC3)ccc2c1              0.0
5  Cc1nccn1CC1CCc2c(c3ccccc3n2C)C1=O (stereo unspecified)              0.0
